Target: T1, human KLK5 (human, UniProt Q9Y337 67-293)
T1 construct: also called huKLK5; KLK5 AMC
T1 sequence: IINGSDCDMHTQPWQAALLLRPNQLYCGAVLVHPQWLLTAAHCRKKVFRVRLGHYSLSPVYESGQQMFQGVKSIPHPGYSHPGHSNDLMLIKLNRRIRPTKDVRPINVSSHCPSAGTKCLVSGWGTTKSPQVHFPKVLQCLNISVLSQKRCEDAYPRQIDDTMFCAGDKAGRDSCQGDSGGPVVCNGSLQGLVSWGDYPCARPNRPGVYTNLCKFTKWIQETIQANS
Assay Name: SPR, one-armed monovalent antibody
Reported Kd values for a set of binders
Could you give the number and then its unit, please?

# Binder, Result
rows = [
    ("OA.hu.10C5.N53V.S34K (antibody, V domains shown, One-armed (OA) monovalent anti-KLK5 antibody with a human IgG1 Fc, with Q38E/Q39K; constant regions and dummy Fc chain not specified) VH: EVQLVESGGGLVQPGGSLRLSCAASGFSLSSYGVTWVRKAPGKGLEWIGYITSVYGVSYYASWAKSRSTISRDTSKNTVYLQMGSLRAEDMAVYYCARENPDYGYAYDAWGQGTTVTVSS VL: AIRMTQSPSSFSASTGDRVTITCQASESISNELKWYQEKPGKAPKLLIYYASTLASGVPSRFSGSGSGTDFTLTISSLQPEDFATYYCAQGFGSSGVENVFGGGTKVEIK", "2.89 pM"),
    ("OA.hu.10C5.N53V.S34K.F92Y.S95F (antibody, V domains shown, One-armed (OA) monovalent anti-KLK5 antibody with a human IgG1 Fc, with Q38E/Q39K; constant regions and dummy Fc chain not specified) VH: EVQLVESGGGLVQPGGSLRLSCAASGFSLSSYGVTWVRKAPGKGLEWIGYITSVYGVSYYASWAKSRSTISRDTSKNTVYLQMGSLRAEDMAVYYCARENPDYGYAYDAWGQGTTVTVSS VL: AIRMTQSPSSFSASTGDRVTITCQASESISNELKWYQEKPGKAPKLLIYYASTLASGVPSRFSGSGSGTDFTLTISSLQPEDFATYYCAQGYGSFGVENVFGGGTKVEIK", "0.367 pM"),
]

Now for the binder whose Kd we want.
So what's the measured Kd for this one? OA.hu.10C5.L5H28.WT (antibody, V domains shown, One-armed (OA) monovalent anti-KLK5 antibody with a human IgG1 Fc, without Q38E/Q39K; constant regions and dummy Fc chain not specified) VH: EVQLVESGGGLVQPGGSLRLSCAASGFSLSSYGVTWVRQAPGKGLEWIGYITSNYGVSYYASWAKSRSTISRDTSKNTVYLQMGSLRAEDMAVYYCARENPDYGYAYDAWGQGTTVTVSS VL: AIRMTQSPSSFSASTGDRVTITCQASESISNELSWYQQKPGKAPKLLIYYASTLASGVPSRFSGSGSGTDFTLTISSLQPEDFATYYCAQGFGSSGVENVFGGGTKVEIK
102 pM

// provenance: patent US20240084042A1
